Hi there, I'd appreciate the recorded drug sensitivity score for every entry that follows.
- Test system: CAL-85-1
- Test name: drug sensitivity score (DSS), CellTox Green (DSS (AUC-based score)); higher = stronger drug effect (viability inhibition or cytotoxicity); extreme values may be limits of the assay
- Condition details: incubation time: 72 h
Lab note: record just the number, no unit beside it.

Field drug sensitivity score (CAL-85-1), entry COc1cc2c(cc1-c1c(C)noc1C)ncc1[nH]c(=O)n([C@H](C)c3ccccn3)c12 : 5.11

CAL-85-1 data for CCCCCOC(=O)Nc1nc(=O)n([C@@H]2O[C@H](C)[C@@H](O)[C@H]2O)cc1F ; its drug sensitivity score: 0

Hey, CAL-85-1 data for Cn1cc(C[C@@H](N)C(=O)O)c2ccccc21 : drug sensitivity score came out at 0

# value of drug sensitivity score, CAL-85-1, item COc1cc2c(N3CCN(C(=O)Nc4ccc(OC(C)C)cc4)CC3)ncnc2cc1OCCCN1CCCCC1 = 0

Test item COc1cc(Nc2ncc(F)c(Nc3ccc4c(n3)N(COP(=O)(O)O)C(=O)C(C)(C)O4)n2)cc(OC)c1OC ; CAL-85-1; reported drug sensitivity score was 6.03

Observed drug sensitivity score on CAL-85-1, entry N[C@@H](Cc1ccc(N(CCCl)CCCl)cc1)C(=O)O , equals 18.1

Recorded drug sensitivity score for Cn1nnc2c(C(N)=O)ncn2c1=O [Temozolomide] on CAL-85-1 was 0

Reported drug sensitivity score (CAL-85-1) for entry CC(C)n1nc(-c2ccc3oc(N)nc3c2)c2c(N)ncnc21 is 0

GET /values?item= O=C(O)CC[C@H]1CC[C@@](c2cc(F)ccc2F)(S(=O)(=O)c2ccc(Cl)cc2)CC1 &system= CAL-85-1 returns drug sensitivity score: 1.74

The compound O=NN(CCCl)C(=O)NC1CCCCC1 , when measured on CAL-85-1, yielded drug sensitivity score of 0

The recorded drug sensitivity score with CAL-85-1 for C[C@@H](C(=O)O)c1ccc(-c2ccccc2)c(F)c1 was 0

Observed drug sensitivity score on CAL-85-1, entry CO[C@H]1C[C@@H]2CC[C@@H](C)[C@@](O)(O2)C(=O)C(=O)N2CCCC[C@H]2C(=O)O[C@H]([C@H](C)C[C@@H]2CC[C@@H](O)[C@H](OC)C2)CC(=O)[C@H](C)/C=C(\C)[C@@H](O)[C@@H](OC)C(=O)[C@H](C)C[C@H](C)/C=C/C=C/C=C/1C , equals 0
